Hi there, I'd appreciate the recorded AC50 for every entry that follows.
Molecular target: human PAH with the R408W mutation (A375 R408W cells) (Homo sapiens, UniProt P00439, R408W)
Construct: expressed in transfected cells
Sequence (P00439 whole entry R408W): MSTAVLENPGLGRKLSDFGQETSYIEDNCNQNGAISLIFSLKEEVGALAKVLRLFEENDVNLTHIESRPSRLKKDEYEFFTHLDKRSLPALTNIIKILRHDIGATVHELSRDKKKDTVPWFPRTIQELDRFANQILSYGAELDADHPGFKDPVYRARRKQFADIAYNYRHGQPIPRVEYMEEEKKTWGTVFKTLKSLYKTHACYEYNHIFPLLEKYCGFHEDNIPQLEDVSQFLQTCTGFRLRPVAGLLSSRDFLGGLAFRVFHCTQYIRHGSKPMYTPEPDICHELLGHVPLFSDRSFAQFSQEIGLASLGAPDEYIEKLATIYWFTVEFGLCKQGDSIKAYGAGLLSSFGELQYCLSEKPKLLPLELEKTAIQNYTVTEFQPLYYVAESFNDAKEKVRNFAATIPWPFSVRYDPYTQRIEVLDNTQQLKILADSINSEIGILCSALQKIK
Experiment: Cell Based Phenylalanine Flux Assay
Conditions: A375 cells expressing R408W PAH; 24 hrs with compound, then 20 μM sepiapterin and 800 μM 13C9,15N-Phenylalanine for 4 hours; 13C-Tyrosine by LC-MS; average where tested multiple times

Q: Form field: reported AC50 of COc1ccc2oc(C3c4nc[nH]c4CCN3C(=O)c3cnco3)nc2c1 (stereo not drawn)
Ans: 1 to 5 µM

Q: Name the reported AC50 value associated with the molecule CNC(C)(C)c1nc(C)c(C(=O)N2CCc3[nH]cnc3C2c2nc3cc(F)ccc3o2)o1 (single isomer, unassigned) [4R enantiomer of (2-{5-[4-(5-fluoro-1,3-benzoxazol-2-yl)-1H,]
Ans: ≥ 5 µM

Q: Returns the measured AC50 for the input molecule. Input: Nc1cc(C(=O)N2CCc3[nH]cnc3C2c2nc3cc(F)ccc3o2)n(C(F)F)n1 (stereo not drawn)
Ans: 1 to 5 µM

Q: State the recorded AC50 for this entry: Cc1nc(C(C)O)oc1C(=O)N1CCc2[nH]cnc2C1c1nc2cc(F)ccc2o1 (stereo not drawn)
Ans: ≥ 5 µM

src = patent US20250171437A1
